# AC50 measurements, system: Glutamate receptor ionotropic, NMDA 1 (Rattus norvegicus, UniProt P35439); further: assay procedure not described here

Illustrative cases are given below, each with its answer.
[
  {
    "compound": "CC1=C(/C=C/C(C)=C/C=C/C(C)=C/CO)C(C)(C)CCC1",
    "measured-target": "Glutamate receptor ionotropic, NMDA 1 (Rattus norvegicus, UniProt P35439)",
    "AC50": "> 10 µM"
  },
  {
    "compound": "CC(C(=O)O)c1ccc2c(c1)CC(=O)c1ccccc1S2 (centres undefined)",
    "measured-target": "Glutamate receptor ionotropic, NMDA 1 (Rattus norvegicus, UniProt P35439)",
    "AC50": "> 30 µM"
  },
  {
    "compound": "O=S1(=O)CCN(CN2CCS(=O)(=O)NC2)CN1",
    "measured-target": "Glutamate receptor ionotropic, NMDA 1 (Rattus norvegicus, UniProt P35439)",
    "AC50": "> 30 µM"
  },
  {
    "compound": "CN1Cc2c(N)cccc2C(c2ccccc2)C1 (centres undefined)",
    "measured-target": "Glutamate receptor ionotropic, NMDA 1 (Rattus norvegicus, UniProt P35439)",
    "AC50": "> 30 µM"
  },
  {
    "compound": "CCC(NC(C)C)C(O)c1ccc(O)c2[nH]c(=O)ccc12 (centres undefined)",
    "measured-target": "Glutamate receptor ionotropic, NMDA 1 (Rattus norvegicus, UniProt P35439)",
    "AC50": "> 30 µM"
  },
  {
    "compound": "CC1(C)S[C@@H]2[C@H](NC(=O)C(C(=O)O)c3ccccc3)C(=O)N2[C@H]1C(=O)O (some centres undefined)",
    "measured-target": "Glutamate receptor ionotropic, NMDA 1 (Rattus norvegicus, UniProt P35439)",
    "AC50": "> 30 µM"
  },
  {
    "compound": "OC[C@H]1O[C@@H](n2cnc3c2NC=NC[C@H]3O)C[C@@H]1O",
    "measured-target": "Glutamate receptor ionotropic, NMDA 1 (Rattus norvegicus, UniProt P35439)",
    "AC50": "> 30 µM"
  },
  {
    "compound": "CC(C)(Oc1ccc(CCNC(=O)c2ccc(Cl)cc2)cc1)C(=O)O [BEZAFIBRATE]",
    "measured-target": "Glutamate receptor ionotropic, NMDA 1 (Rattus norvegicus, UniProt P35439)",
    "AC50": "> 10 µM"
  }
]

Prompt: Requested read-out AC50, target or system Glutamate receptor ionotropic, NMDA 1 (Rattus norvegicus, UniProt P35439), entry O=C1OC(OC(=O)c2cccnc2Nc2cccc(C(F)(F)F)c2)c2ccccc21 (centres undefined) [TALNIFLUMATE]; further: assay procedure not described here
Completion: > 30 µM

Prompt: So what AC50 did `CCCN(CCC)S(=O)(=O)c1ccc(C(=O)O)cc1` get with Glutamate receptor ionotropic, NMDA 1 (Rattus norvegicus, UniProt P35439)?
Completion: > 10 µM

Prompt: Lab request: please report AC50 under test system Glutamate receptor ionotropic, NMDA 1 (Rattus norvegicus, UniProt P35439) for CCCC(C)(COC(N)=O)COC(N)=O [MEPROBAMATE]; further: assay procedure not described here
Completion: > 10 µM

Prompt: Find AC50 (Glutamate receptor ionotropic, NMDA 1 (Rattus norvegicus, UniProt P35439)) for the entry `CN(C)Cc1nnc2n1-c1ccc(Cl)cc1C(c1ccccc1)=NC2`
Completion: > 10 µM

Prompt: # returns recorded AC50 (system: Glutamate receptor ionotropic, NMDA 1 (Rattus norvegicus, UniProt P35439)) for CC(C(=O)O)c1ccc2oc(-c3ccc(Cl)cc3)nc2c1 (centres undefined); further: assay procedure not described here
Completion: > 30 µM

Prompt: Any idea what AC50 came out for `Cc1nc(Nc2ncc(C(=O)Nc3c(C)cccc3Cl)s2)cc(N2CCN(CCO)CC2)n1` on Glutamate receptor ionotropic, NMDA 1 (Rattus norvegicus, UniProt P35439)?
Completion: > 10 µM

Prompt: Item: `CC[C@H](C)C(=O)O[C@H]1C[C@@H](C)C=C2C=C[C@H](C)[C@H](CC[C@@H]3C[C@@H](O)CC(=O)O3)[C@H]21` Test system: Glutamate receptor ionotropic, NMDA 1 (Rattus norvegicus, UniProt P35439) Read-out: AC50 Value: ?; further: assay procedure not described here
Completion: > 10 µM

----------
target: Gamma-aminobutyric acid receptor subunit alpha-1 (Rattus norvegicus); format: functional; further: assay procedure not described here
Sequence (P62813 whole entry): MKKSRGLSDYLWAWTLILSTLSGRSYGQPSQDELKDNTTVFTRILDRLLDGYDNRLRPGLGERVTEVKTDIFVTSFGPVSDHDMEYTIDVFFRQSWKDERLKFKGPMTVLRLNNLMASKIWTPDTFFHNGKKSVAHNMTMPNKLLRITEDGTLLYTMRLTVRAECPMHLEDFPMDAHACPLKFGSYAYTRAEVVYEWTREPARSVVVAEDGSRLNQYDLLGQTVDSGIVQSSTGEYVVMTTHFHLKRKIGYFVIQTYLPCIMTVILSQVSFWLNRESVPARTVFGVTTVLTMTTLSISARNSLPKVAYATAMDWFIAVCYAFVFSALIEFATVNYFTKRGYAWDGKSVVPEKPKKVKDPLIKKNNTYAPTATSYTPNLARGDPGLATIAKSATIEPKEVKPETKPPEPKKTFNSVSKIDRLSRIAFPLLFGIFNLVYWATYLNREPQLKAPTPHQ
readout-name: AC50

Solved entries:
[
  {
    "molecule": "CC(C)N(CCCCOCC(=O)O)c1cnc(-c2ccccc2)c(-c2ccccc2)n1",
    "measured-target": "Gamma-aminobutyric acid receptor subunit alpha-1 (Rattus norvegicus)",
    "AC50": "> 30 µM"
  },
  {
    "molecule": "Oc1ccc(CCNCCCCCCNCCc2ccccc2)cc1O",
    "measured-target": "Gamma-aminobutyric acid receptor subunit alpha-1 (Rattus norvegicus)",
    "AC50": "> 30 µM"
  },
  {
    "molecule": "CC(=O)[C@H]1CC[C@H]2[C@@H]3C[C@H](C)C4=CC(=O)CC[C@]4(C)[C@H]3[C@@H](O)C[C@]12C",
    "measured-target": "Gamma-aminobutyric acid receptor subunit alpha-1 (Rattus norvegicus)",
    "AC50": "> 10 µM"
  },
  {
    "molecule": "CN(CCOc1ccc(CC2SC(=O)NC2=O)cc1)c1ccccn1 (centres undefined)",
    "measured-target": "Gamma-aminobutyric acid receptor subunit alpha-1 (Rattus norvegicus)",
    "AC50": "> 30 µM"
  },
  {
    "molecule": "CN[C@]1(c2ccccc2Cl)CCCCC1=O",
    "measured-target": "Gamma-aminobutyric acid receptor subunit alpha-1 (Rattus norvegicus)",
    "AC50": "> 30 µM"
  }
]

Prompt: What value of measured AC50 is listed for `CCc1cc2c(s1)-n1c(C)nnc1CN=C2c1ccccc1Cl` ?
Completion: 0.0091 µM

Prompt: Consider the molecule `CN(C)Cc1nnc2n1-c1ccc(Cl)cc1C(c1ccccc1)=NC2` and give its measured AC50.
Completion: 0.19 µM

Prompt: Any idea what AC50 was measured for `CC(C)[C@H](N)C(=O)OCCOCn1cnc2c(=O)[nH]c(N)nc21` ?
Completion: > 10 µM

Prompt: Recorded AC50 of `C[C@]12C=CC(=O)C=C1CC[C@@H]1[C@@H]2CC[C@]2(C)OC(=O)CC[C@@H]12` , please.
Completion: > 10 µM

----------
biological target: Prostaglandin G/H synthase 1 (Rattus norvegicus, UniProt Q63921); assay type: functional; further: assay procedure not described here
Sequence (Q63921 whole entry): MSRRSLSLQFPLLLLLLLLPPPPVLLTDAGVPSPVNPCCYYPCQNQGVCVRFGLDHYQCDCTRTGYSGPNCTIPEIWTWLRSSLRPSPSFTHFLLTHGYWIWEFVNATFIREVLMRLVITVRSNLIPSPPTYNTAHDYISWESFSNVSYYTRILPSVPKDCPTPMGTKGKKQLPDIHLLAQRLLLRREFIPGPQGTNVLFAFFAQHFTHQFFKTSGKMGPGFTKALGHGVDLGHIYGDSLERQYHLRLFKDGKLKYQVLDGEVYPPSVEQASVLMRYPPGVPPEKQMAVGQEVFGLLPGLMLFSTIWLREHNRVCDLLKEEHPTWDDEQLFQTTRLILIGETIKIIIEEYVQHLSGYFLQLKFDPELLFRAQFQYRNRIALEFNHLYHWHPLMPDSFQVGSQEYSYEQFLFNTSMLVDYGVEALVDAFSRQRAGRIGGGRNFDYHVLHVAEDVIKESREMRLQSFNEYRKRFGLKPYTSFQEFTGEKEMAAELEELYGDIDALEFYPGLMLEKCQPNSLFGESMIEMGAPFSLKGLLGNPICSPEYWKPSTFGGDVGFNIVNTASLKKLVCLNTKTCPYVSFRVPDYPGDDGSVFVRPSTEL
readout-name: AC50

Worked cases, AC50 given:
[
  {
    "compound": "CC(=O)[C@H]1CC[C@H]2[C@@H]3C[C@H](C)C4=CC(=O)CC[C@]4(C)[C@H]3[C@@H](O)C[C@]12C [MEDRYSONE]",
    "AC50": "> 10 µM"
  },
  {
    "compound": "CCCNC(=O)NS(=O)(=O)c1ccc(Cl)cc1 [CHLORPROPAMIDE]",
    "AC50": "> 30 µM"
  },
  {
    "compound": "CC1(C)S[C@@H]2[C@H](NC(=O)C(C(=O)O)c3ccccc3)C(=O)N2[C@H]1C(=O)O (some centres undefined) [CARBENICILLIN]",
    "AC50": "> 30 µM"
  }
]

Prompt: Provide value of AC50 for this record tested with Prostaglandin G/H synthase 1 (Rattus norvegicus, UniProt Q63921): C[C@@H]1C[C@H]2[C@@H]3C[C@H](F)C4=CC(=O)C=C[C@]4(C)[C@@]3(F)[C@@H](O)C[C@]2(C)[C@@]1(OC(=O)c1ccco1)C(=O)SCF [FLUTICASONE FUROATE]
Completion: > 10 µM

----------
target: Beta-1 adrenergic receptor (Homo sapiens, UniProt P08588); assay type: functional; further: assay procedure not described here
Sequence (P08588 whole entry): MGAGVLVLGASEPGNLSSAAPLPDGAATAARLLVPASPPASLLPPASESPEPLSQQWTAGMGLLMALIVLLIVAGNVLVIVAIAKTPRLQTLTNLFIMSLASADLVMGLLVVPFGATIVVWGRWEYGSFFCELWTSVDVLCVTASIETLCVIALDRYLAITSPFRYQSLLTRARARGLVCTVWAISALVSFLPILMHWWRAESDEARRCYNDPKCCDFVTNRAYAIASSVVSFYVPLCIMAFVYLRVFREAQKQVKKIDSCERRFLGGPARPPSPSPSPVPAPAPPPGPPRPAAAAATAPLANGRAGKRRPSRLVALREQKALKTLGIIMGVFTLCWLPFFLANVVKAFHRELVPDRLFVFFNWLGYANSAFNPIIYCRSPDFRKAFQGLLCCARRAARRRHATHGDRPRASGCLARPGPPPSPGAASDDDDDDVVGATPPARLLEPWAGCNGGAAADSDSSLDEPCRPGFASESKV
readout-name: AC50

Worked cases, answers included:
[
  {
    "molecule": "O=C(O)CCNC(=O)c1ccc(/N=N/c2ccc(O)c(C(=O)O)c2)cc1 [BALSALAZIDE]",
    "AC50": "> 30 µM"
  },
  {
    "molecule": "COc1cc(C(=O)NC2CCCNC2)cc(OC)c1OC (centres undefined) [TROXIPIDE]",
    "AC50": "> 30 µM"
  },
  {
    "molecule": "C[C@@H]1C[C@H]2[C@@H]3C[C@H](F)C4=CC(=O)C=C[C@]4(C)[C@@]3(F)[C@@H](O)C[C@]2(C)[C@@]1(OC(=O)c1ccco1)C(=O)SCF [FLUTICASONE FUROATE]",
    "AC50": "> 10 µM"
  }
]

Now turn to the next molecule.
Prompt: // query AC50 value for entry CC(c1cc2ccccc2s1)N(O)C(N)=O (centres undefined)
Completion: > 10 µM

----------
molecular target: Voltage-gated inwardly rectifying potassium channel KCNH2 (Homo sapiens, UniProt Q12809); format: functional; further: assay procedure not described here
Sequence (Q12809 whole entry): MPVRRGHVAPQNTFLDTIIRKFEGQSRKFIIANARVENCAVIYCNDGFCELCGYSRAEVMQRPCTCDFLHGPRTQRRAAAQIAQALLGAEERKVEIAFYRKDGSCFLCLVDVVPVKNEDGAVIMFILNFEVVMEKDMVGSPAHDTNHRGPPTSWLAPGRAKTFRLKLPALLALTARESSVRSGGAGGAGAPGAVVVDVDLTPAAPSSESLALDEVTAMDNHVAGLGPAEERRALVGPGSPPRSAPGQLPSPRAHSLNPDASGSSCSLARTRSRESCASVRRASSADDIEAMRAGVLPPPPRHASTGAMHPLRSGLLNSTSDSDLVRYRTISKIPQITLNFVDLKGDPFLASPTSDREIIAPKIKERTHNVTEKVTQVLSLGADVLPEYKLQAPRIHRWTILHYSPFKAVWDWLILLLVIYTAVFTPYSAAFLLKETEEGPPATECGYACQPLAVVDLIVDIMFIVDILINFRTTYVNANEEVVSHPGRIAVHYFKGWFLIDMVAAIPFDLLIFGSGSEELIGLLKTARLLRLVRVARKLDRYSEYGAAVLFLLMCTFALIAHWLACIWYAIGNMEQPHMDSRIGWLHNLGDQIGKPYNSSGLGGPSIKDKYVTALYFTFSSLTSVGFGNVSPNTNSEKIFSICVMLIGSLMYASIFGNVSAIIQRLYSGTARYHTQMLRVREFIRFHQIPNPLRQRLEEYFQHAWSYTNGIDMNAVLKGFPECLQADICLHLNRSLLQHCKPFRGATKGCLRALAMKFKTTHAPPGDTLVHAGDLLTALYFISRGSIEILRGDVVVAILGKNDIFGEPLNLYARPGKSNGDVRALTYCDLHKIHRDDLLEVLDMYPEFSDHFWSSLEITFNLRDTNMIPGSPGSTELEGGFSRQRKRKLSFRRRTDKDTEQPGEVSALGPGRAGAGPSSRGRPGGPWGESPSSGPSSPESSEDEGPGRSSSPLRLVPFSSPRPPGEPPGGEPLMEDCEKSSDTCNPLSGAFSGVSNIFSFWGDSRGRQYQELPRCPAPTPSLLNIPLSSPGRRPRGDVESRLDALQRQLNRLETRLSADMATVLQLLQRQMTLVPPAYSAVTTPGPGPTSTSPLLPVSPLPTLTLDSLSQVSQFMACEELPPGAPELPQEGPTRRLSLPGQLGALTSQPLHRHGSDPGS
Entries and their AC50 values follow.

[
  {
    "compound": "O=c1c(O)c(-c2ccc(O)c(O)c2)oc2cc(O)cc(O)c12",
    "recorded-value": "> 30 µM"
  },
  {
    "compound": "CNC[C@H](O)c1ccc(O)c(O)c1 [EPINEPHRINE]",
    "recorded-value": "> 30 µM"
  },
  {
    "compound": "CO/N=C(\\C(=O)N[C@@H]1C(=O)N2C(C(=O)O)=C(CSc3nc(=O)c(=O)[nH]n3C)CS[C@H]12)c1csc(N)n1",
    "recorded-value": "> 30 µM"
  },
  {
    "compound": "CCOC(=O)c1ccc(N)cc1",
    "recorded-value": "> 30 µM"
  },
  {
    "compound": "CC1=C(C(=O)OC(C)C)C(c2cccc([N+](=O)[O-])c2)C(C(=O)OC2CN(C(c3ccccc3)c3ccccc3)C2)=C(N)N1 (stereo not given)",
    "recorded-value": "> 30 µM"
  }
]

Prompt: Field: AC50 (Voltage-gated inwardly rectifying potassium channel KCNH2 (Homo sapiens, UniProt Q12809)). Entry: `CC(C)[C@H](N)C(=O)OCCOCn1cnc2c(=O)[nH]c(N)nc21`
Completion: > 30 µM

Prompt: // lookup AC50 | system=Voltage-gated inwardly rectifying potassium channel KCNH2 (Homo sapiens, UniProt Q12809) | key= `C[N+](C)(C)CCOP(=O)([O-])OC[C@H](O)CO`; further: assay procedure not described here
Completion: > 30 µM

Prompt: Item `Cc1cc(C2CCCCC2)n(O)c(=O)c1` with Voltage-gated inwardly rectifying potassium channel KCNH2 (Homo sapiens, UniProt Q12809) - AC50?
Completion: > 30 µM
